- target.under.test: Beta-2 adrenergic receptor (Homo sapiens)
- run.parameters: Compound concentration 10 µM; call rule not given here
Respond using exactly one of the listed classes: yes (1) for active, no (0) for inactive

Below, 4 compounds whose answers are already recorded.
CCCn1c(=O)c2[nH]c(-c3cnn(Cc4cccc(C(F)(F)F)c4)c3)nc2n(CC)c1=O    no (0)
COc1ccc(NS(=O)(=O)c2sc3ccc(Cl)cc3c2C)cc1N1CCNCC1    no (0)
CSc1ccc(C(=O)N[C@@H]2CCCC[C@@H]2NC(=O)CNC(=O)c2cc(C(F)(F)F)ccc2NC(=O)NC(C)C)cc1    no (0)
Cc1ccccc1N1CCN(S(=O)(=O)C[C@]23CC[C@H](C[C@@H]2NC(=O)[C@@H](N)CCS(C)(=O)=O)C3(C)C)CC1    no (0)

Dear colleague, could you share the recorded outcome for "O=C(O)C1CN(Cc2ccc(-c3nc4cc(Cc5ccccc5F)ccc4s3)c(F)c2)C1" when you have a moment?
yes (1)

Each compound tested received a call. Report the one for Cc1c(OCc2cccc(-c3ccc(C(=O)O)cc3)c2)cc2c(c1C)C(=O)C(C1CCCC1)C2 (stereo unspecified) .
no (0)

----------
- target.under.test: Alpha-1B adrenergic receptor (Homo sapiens)
- run.parameters: Compound concentration 10 µM; call rule not given here
Permitted responses: active, inactive

Example results:
c1nc(CC2CCNCC2)c[nH]1    inactive
CC(C)(C(=O)O)c1ccc(C(O)CCCN2CCC(C(O)(c3ccccc3)c3ccccc3)CC2)cc1 (stereo not given)    inactive
COc1cccc([C@@H](C)NCCCc2ccccc2Cl)c1    inactive
Cc1cccc([C@H](C)c2c[nH]cn2)c1C    active
Cc1ccc(O)c([C@H](CCN(C(C)C)C(C)C)c2ccccc2)c1    inactive

So what was the verdict on "C[C@H](Cc1cc2c(c(C(N)=O)c1)N(CCCO)CC2)NCCOc1ccccc1OCC(F)(F)F" in this test?
active

Test call, this compound: CCOC(=O)c1c(C)[nH]c2ccc3c(c12)CN1CCc2cc(OC)ccc2C1O3 (stereo not given)
inactive

Test call for this compound, please: "COc1cc2nc(N3CCN(C(=O)c4ccco4)CC3)nc(N)c2cc1OC"
inactive

----------
- target.under.test: 5-hydroxytryptamine receptor 2C (Homo sapiens)
- run.parameters: Compound concentration 10 µM; call rule not given here
// classify into y = active, n = inactive

See these solved cases before continuing.
Cc1cc(NC(=O)NCCN2CCC(O)(Cc3ccccc3)CC2)c2ccccc2n1    y
NC[C@@H]1O[C@H](C23CC4CC(CC(C4)C2)C3)Cc2c1ccc(O)c2O    n
OCc1cc(C(O)CNCCCCCCOCCCCc2ccccc2)ccc1O (stereo not given)    y
Cc1c(P(=S)(c2ccccc2)c2ccccc2)n2ccccc2[n+]1C/C=C/c1ccccc1    n
NCCc1c[nH]c2ccc(C(N)=O)cc12    y
O=C(Cc1ccc(Cl)c(Cl)c1)N1CCCC[C@H]1CN1CCCC1    n

Answer briefly: the call reported for "O=C(O)CC/C=C\C[C@@H]1CO[C@H](c2ccccc2Cl)O[C@@H]1c1ccccc1O" in this assay.
n

Identify the outcome logged in this assay for the compound shown: "COc1ccc(NS(=O)(=O)c2sc3ccc(Cl)cc3c2C)cc1N1CCNCC1"
y

What is the recorded call for this compound in the test? "C[N+]1(C)[C@@H]2C[C@@H](OC(=O)C(O)(c3cccs3)c3cccs3)C[C@H]1[C@@H]1O[C@@H]12"
n

Test call for this compound, please: CC(C)NCC(O)c1ccc(N)c(C#N)c1 (stereo not given)
n
